Every entry's value here was drawn from ChEMBL document CHEMBL1156012.

// Genome polyprotein (West Nile virus) IC50 records
endpoint: IC50 (µM)

Solved entries (count: 6):
Qu. Give me measured IC50, please, for this compound: COc1ccc(S(=O)(=O)n2nc(OC(=O)c3c(F)ccc(C)c3F)cc2N)cc1
Ans. 4.28

Qu. Consider the compound COc1ccc(Cn2nc(C)cc2CC(=O)c2ccccc2F)cc1 and give its recorded IC50.
Ans. 38.8

Qu. Return the recorded IC50 value; entry: COc1ccc(S(=O)(=O)n2nc(OC(=O)c3c(F)c(F)c(C)c(F)c3F)cc2N)cc1
Ans. 10.7

Qu. State, in one line, measured IC50 of COc1ccc(Cn2nc(C)cc2CC(=O)c2c(F)cccc2F)cc1
Ans. 23.9

Qu. Assign IC50 to the following record: COc1ccc(S(=O)(=O)n2nc(OC(=O)c3cc(F)c(F)cc3F)cc2N)cc1
Ans. 26.2

Qu. Specify IC50 for COc1ccc(Cn2nc(C)cc2OC(=O)c2c(F)cccc2F)cc1 and stop.
Ans. 8.71

P. Cc1cc(OC(=O)c2c(F)ccc(C)c2F)n(Cc2ccccc2)n1
Q. COc1ccc(Cn2nc(C)cc2OC(=O)c2ccccc2)cc1
Qu. Hi there! Just curious which has the higher IC50 between P and Q . Please reply using the label of the selected record.
Ans. P

a. COc1ccc(S(=O)(=O)n2nc(OC(=O)c3sccc3C)cc2N)cc1
b. COc1ccc(Cn2nc(C)cc2OC(=O)c2c(F)ccc(C)c2F)cc1
Qu. Look at a and b . Which one has the lower recorded IC50 number? Record your answer as the label of the chosen record.
Ans. a
